The measurements presented in this section are drawn from the supplement of paper PMC13380429.

- System: Vero E6 infected with SARS-CoV-2
- ASSAY DETAILS: SARS-CoV-2 infection rate relative to infected DMSO; higher = more infection, active = 60 or less
- TEST CONTEXT: 24 h
VALUE KIND: SARS-CoV-2 infection rate (%)

>>> data_value("CCCCCNCC(N)=O [milacemide] (10 µM)")
99
>>> data_value("CN1CCN(c2ccc3nc(-c4c(N)c5c(F)cccc5[nH]c4=O)[nH]c3c2)CC1 [dovitinib] (10 µM)")
102
>>> data_value("OCCCNc1cc(-c2ccnc(Nc3cccc(Cl)c3)n2)ccn1 (10 µM)")
98
>>> data_value("CCC1(c2ccccc2)C(=O)NCNC1=O [primidone] (10 µM)")
102
>>> data_value("C#C[C@]1(O)CC[C@H]2[C@@H]3CCc4cc(OC)ccc4[C@H]3CC[C@@]21C [mestranol] (10 µM)")
110
>>> data_value("N#Cc1c(N)nc(SCC(N)=O)c(C#N)c1-c1ccc(OCC2CC2)cc1 (10 µM)")
108
>>> data_value("Cc1onc(O)c1C[C@@H](N)C(=O)O (racemic) (10 µM)")
104
>>> data_value("NC(=O)Cc1cccc(C(=O)c2ccccc2)c1N [nepafenac] (10 µM)")
120
>>> data_value("Cc1cc(C)c2nc(-c3ccccn3)cc(C(=O)Nc3ccc(S(=O)(=O)Nc4onc(C)c4C)cc3)c2c1 (10 µM)")
97
>>> data_value("CC(C)Oc1ccc(-c2nc(-c3cccc4c3CC[C@@H]4NCCO)no2)cc1C#N [ozanimod] (0.833333 µM)")
101
>>> data_value("Cc1ncc(-c2ccnc(Nc3ccc(S(C)(=O)=O)cc3)n2)n1C(C)C (0.833333 µM)")
99.5
>>> data_value("CCCCCCCC(=O)N[C@H](CN1CCCC1)[C@H](O)c1ccc2c(c1)OCCO2 [eliglustat] (10 µM)")
92.5
>>> data_value("Oc1ccc2ccccc2c1Cc1c(O)ccc2ccccc12 (10 µM)")
104
>>> data_value("CNC(=O)ON(C(C)=O)C(=O)NC [caracemide] (10 µM)")
104
>>> data_value("O=C(O)Cc1ccccc1Nc1c(Cl)cccc1Cl [diclofenac] (10 µM)")
106
>>> data_value("c1ccc(C(NCc2cccnc2)(c2ccccc2)c2ccccc2)cc1 (10 µM)")
104
>>> data_value("CN(C)C[C@H](O)Cn1c2ccc(Br)cc2c2cc(Br)ccc21 (racemic) [wiskostatin] (0.833333 µM)")
110
>>> data_value("CCN(CC)C(=S)S [ditiocarb-sodium-trihydrate] (10 µM)")
11
>>> data_value("COc1ccc(-c2cc(=O)c3c(O)c(OC)c(O)cc3o2)cc1OC [eupatilin] (10 µM)")
109

---

Measured inhibition of SARS-CoV-2 cytopathic effect values are reported for all entries that follow.
- Test system: Vero E6 infected with SARS-CoV-2
- ASSAY DETAILS: inhibition of SARS-CoV-2 cytopathic effect; higher = more antiviral protection, active = above 15
- TEST CONTEXT: 8.33 nM; 48 h
VALUE KIND: inhibition of SARS-CoV-2 cytopathic effect (%)

>>> data_value("COC(=O)N[C@H](C(=O)N1CCC[C@H]1c1nc(-c2ccc3c(c2)O[C@@H](c2ccccc2)n2c-3cc3cc(-c4c[nH]c([C@@H]5CCCN5C(=O)[C@@H](NC(=O)OC)C(C)C)n4)ccc32)c[nH]1)C(C)C")
1.52
>>> data_value("Fc1ccc2nc(CCC#Cc3ccccn3)cn2c1")
0.17
>>> data_value("CC(C)NC(=N)NC(=N)Nc1ccc(Cl)cc1")
0.28
>>> data_value("CN1c2ccccc2C(NCCCCCCC(=O)O)c2ccc(Cl)cc2S1(=O)=O (configuration not stated)")
-1.19
>>> data_value("C[C@]12CCC(=O)C=C1CC[C@@H]1[C@@H]2C(=O)C[C@]2(C)C(=O)CC[C@@H]12")
-2.37
>>> data_value("CN(C)CCC=C1c2ccccc2C=Cc2ccccc21")
6.56
>>> data_value("COc1cc(N2CCC(N3CCN(C)CC3)CC2)ccc1Nc1ncc(Cl)c(Nc2ccccc2P(C)(C)=O)n1")
-1.85
>>> data_value("C[C@@H]([C@@H](O)c1ccc(O)cc1)N1CCC(O)(c2ccccc2)CC1")
-0.79
>>> data_value("Nc1c(CC(=O)O)cccc1C(=O)c1ccc(Br)cc1")
0.84
>>> data_value("COc1ccc(CCC(=O)c2c(O)cc(O[C@@H]3O[C@H](CO)[C@@H](O)[C@H](O)[C@H]3O[C@@H]3O[C@@H](C)[C@H](O)[C@@H](O)[C@H]3O)cc2O)cc1O [Neohesperidin dihydrochalcone (Nhdc)]")
-3.36
>>> data_value("O=C(O)c1ccc(Nc2ncc3c(n2)-c2ccc(Cl)cc2C(c2c(F)cccc2F)=NC3)cc1")
-1.02
>>> data_value("CC1OC2(CS1)CN1CCC2CC1 (configuration not stated)")
-0.65
>>> data_value("O=c1[nH]c(=O)n([C@H]2C[C@H](O)[C@@H](CO)O2)cc1I")
-1.19
>>> data_value("Cc1cccc(C(=O)NCN2CCN(c3ccccc3C#N)CC2)c1")
0.9
>>> data_value("C[S+](C)CC[C@H](N)C(=O)O")
-0.84
>>> data_value("Cc1ccc(NC(=O)c2cccc(N(C)C)c2)cc1NC(=O)c1ccc(O)cc1")
-1.26
>>> data_value("CCN(CC)CCCC(C)Nc1nc(C)cc(Nc2ccc3nc(C)cc(N)c3c2)n1 (configuration not stated)")
-0.04
>>> data_value("CC(C)(CO)CCCCCCC(C)(C)CO")
-2.01
>>> data_value("CC(C)[C@]12O[C@H]1[C@@H]1O[C@]13[C@]1(O[C@H]1C[C@H]1C4=C(CC[C@@]13C)C(=O)OC4)[C@@H]2O [triptolide]")
-2.32
>>> data_value("Cn1cc(-c2ccc(S(=O)(=O)n3ccc(/C=C/C(=O)Nc4ccccc4N)c3)cc2)cn1")
1.05
>>> data_value("CN1Cc2c(N)cccc2C(c2ccccc2)C1 (configuration not stated)")
1.01
>>> data_value("Cn1c2cc([S+](C)[O-])sc2c2cnn(Cc3cccc(N)c3)c(=O)c21 (configuration not stated)")
-0.88
>>> data_value("CC(=O)N[C@H](Cc1ccc2ccccc2c1)C(=O)N[C@H](Cc1ccc(Cl)cc1)C(=O)N[C@H](Cc1cccnc1)C(=O)N[C@@H](CO)C(=O)N[C@@H](Cc1ccc(O)cc1)C(=O)N[C@H](CCCNC(N)=O)C(=O)N[C@@H](CC(C)C)C(=O)N[C@@H](CCCNC(=N)N)C(=O)N1CCC[C@H]1C(=O)N[C@H](C)C(N)=O")
-2.29
>>> data_value("CC1=C(C(=O)OC2CCCCC2)C(c2ccc([N+](=O)[O-])cc2)C2=C(CC(C)(C)CC2=O)N1 (configuration not stated)")
-1.2
>>> data_value("CCOc1ccccc1OCC1CNCCO1 (configuration not stated)")
7.03
>>> data_value("NC(=O)C1=CN([C@@H]2O[C@H](COP(=O)(O)OP(=O)(O)OC[C@H]3O[C@@H](n4cnc5c(N)ncnc54)[C@H](OP(=O)(O)O)[C@@H]3O)[C@@H](O)[C@H]2O)C=CC1")
3.17
>>> data_value("O=C(O)CCNC(=O)c1ccccc1")
-0.21
>>> data_value("C[C@@H]1CN(CC(=O)Nc2ccc3c(c2)Cc2cccc(-c4cc(=O)cc(N5CCOCC5)o4)c2S3)C[C@H](C)O1")
0.24
>>> data_value("CC(=O)Nc1c(I)c(C(=O)O)c(I)c(N(C)C(C)=O)c1I")
0.34
>>> data_value("O=C(NOCCO)c1ccc2cncn2c1Nc1ccc(I)cc1F")
-5.37
>>> data_value("CCCNCC(O)COc1ccccc1C(=O)CCc1ccccc1 (configuration not stated)")
-0.69
>>> data_value("CC1(C)CC[C@]2(NC(=O)C(C)(F)F)CC[C@]3(C)[C@H](C(=O)C=C4[C@@]5(C)C=C(C#N)C(=O)C(C)(C)[C@@H]5CC[C@]43C)[C@@H]2C1 [Omaveloxolone (RTA-408)]")
6.39

---

- Test system: Vero E6 infected with SARS-CoV-2
- ASSAY DETAILS: morphology score (similarity to uninfected cells); higher = more like uninfected cells
- TEST CONTEXT: 24 h
VALUE KIND: morphology score

>>> data_value("Cn1c2cc([S+](C)[O-])sc2c2cnn(Cc3cccc(N)c3)c(=O)c21 (stereo unspecified) (10 µM)")
0.0427
>>> data_value("CCC(=N\\O)/C(C)=C/c1ccc(F)cc1 (10 µM)")
0.0411
>>> data_value("COc1ccc(CCNCc2ccc(OCc3ccc(Cl)nc3)c(OC)c2)cc1OC (10 µM)")
0.078
>>> data_value("CN1CC(=O)NC1=N [creatinine] (10 µM)")
0.0578
>>> data_value("Cc1cc(O)c2c(c1)C(=O)c1cc(O)cc(O)c1C2=O [emodin] (10 µM)")
0.146
>>> data_value("O=C(O)CCC(=O)C(=O)O [2-oxoglutaric-acid] (10 µM)")
-0.135
>>> data_value("NC(=O)C[C@H](N)C(=O)O [L-asparagine] (10 µM)")
0.14
>>> data_value("Cc1cc(N2CCOCC2)ccc1Nc1nc(NC2CCCCC2)c2nc[nH]c2n1 (10 µM)")
-0.0587
>>> data_value("O=C(O)C1=C(CSc2nnnn2CS(=O)(=O)O)CS[C@@H]2[C@H](NC(=O)[C@H](O)c3ccccc3)C(=O)N12 [Cefonicid (sodium)] (10 µM)")
-0.0671
>>> data_value("CC(C)NCC(O)c1ccc([N+](=O)[O-])cc1 (stereo unspecified) [nifenalol] (10 µM)")
-0.141
>>> data_value("C[C@H](CCC(=O)O)[C@H]1CC[C@H]2[C@@H]3[C@H](O)C[C@@H]4C[C@H](O)CC[C@]4(C)[C@H]3C[C@H](O)[C@]12C [cholic-acid] (10 µM)")
0.0109
>>> data_value("Cn1cc(-c2ccncc2)c(-c2ccc(OCc3ccc4ccccc4n3)cc2)n1 (10 µM)")
0.927
>>> data_value("Cc1c(N)nc([C@H](CC(N)=O)NC[C@H](N)C(N)=O)nc1C(=O)N[C@H](C(=O)N[C@H](C)[C@@H](O)[C@H](C)C(=O)N[C@H](C(=O)NCCc1nc(-c2nc(C(=O)NCCC[S+](C)C)cs2)cs1)[C@@H](C)O)[C@@H](OC1OC(CO)C(O)C(O)C1OC1OC(CO)C(O)C(OC(N)=O)C1O)c1cnc[nH]1 (stereo partly specified) [bleomycin] (10 µM)")
0.0285
>>> data_value("CN(C)CCn1cc(S(=O)(=O)c2cccc(F)c2)c2cccnc21 (10 µM)")
-0.0241
>>> data_value("Cc1cc(C(=O)NOCCO)c(Nc2ccc(I)cc2F)n(C)c1=O (10 µM)")
-0.0952
>>> data_value("CN(C)CCN(Cc1ccccc1)c1ccccn1 [tripelennamine] (10 µM)")
-0.0386
